src = patent US12258327B2

Give IC50 for every item shown.
# TESTED ON: EGFR del19/C797S (Homo sapiens, UniProt P00533, C797S/DEL746-750)
# Sequence (P00533 with tags, fused parts or gaps DEL746-750/C797S): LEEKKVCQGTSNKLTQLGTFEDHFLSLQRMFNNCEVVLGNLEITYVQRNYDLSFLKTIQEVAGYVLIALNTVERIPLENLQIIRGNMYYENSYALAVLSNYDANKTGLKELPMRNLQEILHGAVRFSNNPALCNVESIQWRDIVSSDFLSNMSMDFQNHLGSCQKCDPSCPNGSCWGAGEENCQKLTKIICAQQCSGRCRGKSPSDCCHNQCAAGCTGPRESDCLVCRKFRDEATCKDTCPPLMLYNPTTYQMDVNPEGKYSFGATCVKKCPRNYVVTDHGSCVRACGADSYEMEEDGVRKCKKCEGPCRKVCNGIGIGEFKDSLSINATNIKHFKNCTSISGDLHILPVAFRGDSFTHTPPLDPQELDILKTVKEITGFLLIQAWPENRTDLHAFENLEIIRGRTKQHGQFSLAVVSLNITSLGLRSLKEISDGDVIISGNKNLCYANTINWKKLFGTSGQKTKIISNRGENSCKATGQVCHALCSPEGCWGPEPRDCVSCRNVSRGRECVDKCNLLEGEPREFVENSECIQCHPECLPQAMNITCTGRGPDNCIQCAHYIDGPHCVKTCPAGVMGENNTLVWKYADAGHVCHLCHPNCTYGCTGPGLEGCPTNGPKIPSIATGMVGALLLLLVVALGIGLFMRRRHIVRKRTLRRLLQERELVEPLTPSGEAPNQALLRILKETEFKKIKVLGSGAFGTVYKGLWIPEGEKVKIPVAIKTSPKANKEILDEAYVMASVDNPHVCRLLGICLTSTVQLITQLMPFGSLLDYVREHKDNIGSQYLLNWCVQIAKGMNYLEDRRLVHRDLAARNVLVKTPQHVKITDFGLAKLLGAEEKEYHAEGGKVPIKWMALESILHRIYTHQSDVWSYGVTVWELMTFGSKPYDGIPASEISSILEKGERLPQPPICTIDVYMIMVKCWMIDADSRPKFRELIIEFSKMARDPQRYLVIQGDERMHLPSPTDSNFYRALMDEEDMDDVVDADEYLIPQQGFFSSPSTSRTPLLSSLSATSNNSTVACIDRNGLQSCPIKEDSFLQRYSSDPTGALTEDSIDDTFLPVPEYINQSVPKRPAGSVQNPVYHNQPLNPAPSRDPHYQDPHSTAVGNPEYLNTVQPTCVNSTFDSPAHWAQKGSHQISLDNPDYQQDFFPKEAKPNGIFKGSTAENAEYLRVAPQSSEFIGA
# PROCEDURE DETAILS: Biochemical EGFR kinase assay (Lance Ultra TR-FRET), double mutant del19/C797S
# PROTOCOL CONDITIONS: IC50 del19/C797S (nM) 100 μM ATP, 100 μM ATP
# value in nM; strip the unit string

Query: Look at this compound and give its reported IC50. O=S(=O)(C1CC1)n1cc(-c2nccc(Nc3cc(N[C@H]4CCC[C@H](O)C4)c(-c4ccn(C(F)F)n4)cn3)n2)cn1 [Example 21]
Result: 0.7

Query: Look at this compound and give its reported IC50. O=S(=O)(C1CC1)n1cc(-c2nccc(Nc3cc(NC4CCCCC4O)c(-c4ccn(C(F)F)n4)cn3)n2)cn1 (stereo not shown) [Example 28]
Result: 62.7

Query: Look at this compound and give its reported IC50. O=S(=O)(C1CC1)n1cc(-c2nccc(Nc3cc(NC4CCC(CCO)CC4)c(-c4ccn(C(F)F)n4)cn3)n2)cn1 (stereo not shown) [Example 133]
Result: 1.4

Query: Look at this compound and give its reported IC50. CCS(=O)(=O)n1ccc(-c2nccc(Nc3cc(N[C@H]4CC[C@@](C)(O)CC4)c(-c4ccn(C(F)F)n4)cn3)n2)n1 [Example 309]
Result: 343

Query: Look at this compound and give its reported IC50. Cn1ccc(-c2cnc(Nc3ccnc(-c4cnn(S(=O)(=O)C5CC5)c4)n3)cc2NCC2(CO)COC2)n1 [Example 228]
Result: 0.8

Query: Look at this compound and give its reported IC50. O=S(=O)(C1CC1)n1cc(-c2nccc(Nc3cc(NC4CCC(F)(CO)CC4)c(-c4cc5n(n4)CCCC5)cn3)n2)cn1 (stereo not shown) [Example 276]
Result: 1.4

Query: Look at this compound and give its reported IC50. CC1(O)CCC(Nc2cc(Nc3ccnc(-c4cnn(C5CCCO5)c4)n3)ncc2-c2ccn(C(F)F)n2)CC1 (stereo not shown) [Example 318]
Result: 290

Query: Look at this compound and give its reported IC50. O=S(=O)(C1CC1)n1cc(-c2nccc(Nc3cc(OC4CCC(O)CC4)c(-c4cnn(C(F)F)c4)cn3)n2)cn1 (stereo not shown) [Example 71]
Result: 1.7

Query: Look at this compound and give its reported IC50. CN(C)C[C@H]1C[C@@H](CNc2cc(Nc3ccnc(-c4cnn(S(=O)(=O)C5CC5)c4)n3)ncc2-c2ccn(C(F)F)n2)C1 [Example 203]
Result: 1.1

Query: Look at this compound and give its reported IC50. Cn1nc(-c2cnc(Nc3ccnc(-c4cnn(S(=O)(=O)C5CC5)c4)n3)cc2N[C@H]2CC[C@@H](NCCF)CC2)cc1C(F)(F)F [Example 255]
Result: 2.4

Query: Look at this compound and give its reported IC50. Cc1ncc(-c2cnc(Nc3ccnc(-c4cnn(S(=O)(=O)C5CC5)c4)n3)cc2N[C@H]2CC[C@@H](O)CC2)s1 [Example 75]
Result: 37.1

Query: Look at this compound and give its reported IC50. CN[C@H]1CC[C@@H](Oc2cc(Nc3ccnc(-c4cnn(S(=O)(=O)C5CC5)c4)n3)ncc2-c2ccn(C(F)F)n2)CC1 [Example 65]
Result: 54.5

Query: Look at this compound and give its reported IC50. CNC[C@H]1CC[C@H](CNc2cc(Nc3ccnc(-c4cnn(S(=O)(=O)C5CC5)c4)n3)ncc2-c2ccn(C(F)F)n2)CC1 [Example 192]
Result: 0.7
